The measured values listed here are drawn from patent US10065948B2.

Here's a batch of compounds along with measured IC50 for Histone Deacetylase 4 (HDAC4) catalytic domain (Homo sapiens (Human)).
measure: IC50 (nM)

1. Cc1c(F)cccc1C1(C(=O)NO)Cc2nc(Cc3cccc(C(F)(F)F)c3)sc2C1 (centres unmarked) [Example 63]
2. Cc1cccc(F)c1-n1ncc2c1C[C@](C(=O)NO)(c1cccc(F)c1C)C2 [Example 15]
Which has the smaller recorded IC50, 1 or 2 ? Write down the label attached to your selection.
2

P. Cc1c(F)cccc1[C@]1(C(=O)NO)Cc2cnn(-c3cccc(F)c3)c2C1 [Example 6]
Q. Cc1c(F)cccc1[C@]1(C(=O)NO)Cc2cnn(-c3ccccc3Cl)c2C1 [Example 7]
R. Cc1c(F)cccc1C1(C(=O)NO)CCc2cn(CC(F)(F)F)nc2CC1 (single isomer, unassigned) [Example 84]
S. Cc1c(F)cccc1C1(C(=O)NO)CCc2nc(NS(=O)(=O)c3ccccc3)sc2C1 (centres unmarked) [Example 41]
Output the entries ranked by IC50 from maximum down to minimum. As an answer, provide the labels arranged in the order called for.
R, S, P, Q

A. Cc1ccc(-n2ncc3c2C[C@](C(=O)NO)(c2cccc(F)c2C)C3)cc1 [Example 9]
B. Cc1c(F)cccc1C1(C(=O)NO)CCc2cn(CC(F)(F)F)nc2CC1 (single isomer, unassigned) [Example 85]
Which has the smaller recorded IC50, A or B ? Write down the label attached to your selection.
A
